Biological target: MRP3 and MRP4 (basolateral transport) (Homo sapiens, UniProt O15439)
Sequence (O15439 1-1325): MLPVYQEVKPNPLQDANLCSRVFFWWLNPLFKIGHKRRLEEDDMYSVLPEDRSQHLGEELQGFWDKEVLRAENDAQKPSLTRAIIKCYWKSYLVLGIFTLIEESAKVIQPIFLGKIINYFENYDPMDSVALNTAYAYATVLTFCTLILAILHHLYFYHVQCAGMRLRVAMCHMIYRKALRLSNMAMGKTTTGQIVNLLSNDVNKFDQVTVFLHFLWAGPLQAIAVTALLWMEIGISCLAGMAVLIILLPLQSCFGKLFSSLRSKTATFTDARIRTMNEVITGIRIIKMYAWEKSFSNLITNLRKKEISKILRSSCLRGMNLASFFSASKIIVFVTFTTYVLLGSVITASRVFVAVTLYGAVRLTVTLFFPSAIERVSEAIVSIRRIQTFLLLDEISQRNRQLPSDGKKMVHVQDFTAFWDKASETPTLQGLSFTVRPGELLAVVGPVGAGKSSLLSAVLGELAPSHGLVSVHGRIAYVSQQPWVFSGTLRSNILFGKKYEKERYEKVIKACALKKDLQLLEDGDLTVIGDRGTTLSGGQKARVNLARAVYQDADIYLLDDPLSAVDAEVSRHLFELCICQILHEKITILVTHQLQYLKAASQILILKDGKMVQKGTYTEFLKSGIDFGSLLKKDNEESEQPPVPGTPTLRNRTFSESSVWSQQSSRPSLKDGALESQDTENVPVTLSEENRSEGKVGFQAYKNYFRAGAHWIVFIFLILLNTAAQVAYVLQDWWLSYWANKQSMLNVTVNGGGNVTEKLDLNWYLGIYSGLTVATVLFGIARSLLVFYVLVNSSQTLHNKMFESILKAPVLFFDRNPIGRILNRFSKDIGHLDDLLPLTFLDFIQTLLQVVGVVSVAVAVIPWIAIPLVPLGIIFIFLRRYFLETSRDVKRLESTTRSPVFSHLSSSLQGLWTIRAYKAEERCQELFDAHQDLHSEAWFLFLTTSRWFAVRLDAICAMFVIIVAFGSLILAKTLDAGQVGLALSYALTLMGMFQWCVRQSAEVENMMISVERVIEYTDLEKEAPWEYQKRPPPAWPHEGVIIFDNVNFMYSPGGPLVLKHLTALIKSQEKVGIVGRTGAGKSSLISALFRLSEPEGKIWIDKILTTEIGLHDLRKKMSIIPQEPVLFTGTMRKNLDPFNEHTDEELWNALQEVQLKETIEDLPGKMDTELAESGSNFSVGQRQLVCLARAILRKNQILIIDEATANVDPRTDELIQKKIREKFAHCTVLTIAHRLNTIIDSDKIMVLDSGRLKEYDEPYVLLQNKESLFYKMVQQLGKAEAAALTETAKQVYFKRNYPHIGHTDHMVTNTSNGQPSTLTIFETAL
Experiment: Basolateral inhibition constant: lowest IC50 of the MRP3 and MRP4 vesicular assays
Format: biochemical
Conditions: membrane vesicles (vesicular transport assay), lowest IC50 of the experimentally derived MRP3 and MRP4 IC50 values
Description: The functional impact of lixivaptan, its three metabolites and tolvaptan on the human ABC (efflux) transporters BSEP and MRP3 and MRP4 was assessed for this project using in vitro vesicular transport inhibition assays. The inhibition of the human SLC (uptake) transporter NTCP was assessed using CHO cells stably expressing human NTCP. The concentration ranges used for the five test articles was determined based on the solubility of each compound in the assay solution. […]
observation type: pIC50
Bear in mind: pIC50 is minus log10 of a mol/L concentration; give just that figure.

In: Name the recorded pIC50 of the item Cc1ccc(F)cc1C(=O)Nc1ccc(C(=O)N2Cc3cccn3Cc3ccccc32)c(Cl)c1 [Lixivaptan, lixivaptan] in your answer.
Out: 4.15
